- experiment_notes: RP-HPLC retention time (hydrophobicity)
- Format: physicochemical
- test_settings: stated to reliably reflect the hydrophobicity in aqueous solution, assessed and provided by GenScript
Where a SMILES comes first, the peptide text is derived from it. The star is where a group is joined. Lauroyl = CCCCCCCCCCCC(=O)*; Decanoyl = CCCCCCCCCC(=O)*
Rule: true (1) for Retention time not less than 20 min, false (0) for anything less.

{"compound": "CCCCCCCCCCCC(=O)N[C@@H](CCCNC(=N)N)C(=O)N[C@@H](CS)C(=O)N[C@@H](Cc1c[nH]c2ccccc12)C(=O)N[C@@H](CCCNC(=N)N)C(N)=O [Lp-C, Lau-RCWR-NH2] (Lauroyl-RCWR-NH2)", "assigned_class": "true (1)"}

Reported Retention time reaches at least 20 min for CCCCCCCCCC(=O)N[C@@H](CCCNC(=N)N)C(=O)N[C@@H](Cc1ccccc1)C(=O)N[C@@H](Cc1c[nH]c2ccccc12)C(=O)N[C@@H](CCCNC(=N)N)C(N)=O [Lp-F^Dec, Dec-RFWR-NH2] (Decanoyl-RFWR-NH2) ?
true (1)

Does the compound CCCCCCCCCCCC(=O)N[C@@H](CCCNC(=N)N)C(=O)N[C@@H](CCCNC(=N)N)C(=O)N[C@@H](Cc1c[nH]c2ccccc12)C(=O)N[C@@H](CCCNC(=N)N)C(N)=O [Lp-R, Lau-RRWR-NH2] (Lauroyl-RRWR-NH2) have recorded Retention time that is 20 min or more?
true (1)

====

- System: E. coli ATCC 25922
- Type: cell-based, Escherichia coli
- test_settings: ATCC 25922, 24 h
Where a SMILES comes first, the peptide text is derived from it. The star is where a group is joined. Lauroyl = CCCCCCCCCCCC(=O)*; Decanoyl = CCCCCCCCCC(=O)*
Measured MIC accompanies every entry in the list below.
Numbers only here, please. The scale is µg/mL.

Field: MIC (E. coli ATCC 25922). Entry: CCCCCCCCCCCC(=O)N[C@@H](CCCNC(=N)N)C(=O)N[C@@H](CCCNC(=N)N)C(=O)N[C@@H](Cc1ccccc1)C(=O)N[C@@H](Cc1c[nH]c2ccccc12)C(=O)N[C@@H](CCCNC(=N)N)C(=O)N[C@@H](CCCNC(=N)N)C(N)=O [Lp-F^RR, Lau-RRFWRR-NH2] (Lauroyl-RRFWRR-NH2)
12.5

Observed MIC on E. coli ATCC 25922 for CCCCCCCCCCCC(=O)N[C@@H](CCCNC(=N)N)C(=O)N[C@@H](CCCNC(=N)N)C(=O)N[C@H](C(=O)N[C@@H](Cc1c[nH]c2ccccc12)C(N)=O)[C@@H](C)CC [Lau-RRIW, Lau-RRIW-NH2] (Lauroyl-RRIW-NH2) , please.
12.5

Kindly state the measured MIC obtained for CCCCCCCCCCCC(=O)N[C@@H](CCCNC(=N)N)C(=O)N[C@@H](CCCNC(=N)N)C(=O)N[C@@H](Cc1c[nH]c2ccccc12)C(=O)N[C@@H](CCCNC(=N)N)C(N)=O [Lp-R, Lau-RRWR-NH2] (Lauroyl-RRWR-NH2) with E. coli ATCC 25922.
12.5

Test system E. coli ATCC 25922; read-out MIC; what value for CCCCCCCCCCCC(=O)N[C@@H](CCCNC(=N)N)C(=O)N[C@@H](CC(C)C)C(=O)N[C@@H](Cc1c[nH]c2ccccc12)C(=O)N[C@@H](CCCNC(=N)N)C(N)=O [Lp-L, Lau-RLWR-NH2] (Lauroyl-RLWR-NH2) ?
25

GET /values?readout=MIC&system=E. coli ATCC 25922&item= CCCCCCCCCCCC(=O)N[C@@H](CCCNC(=N)N)C(=O)N[C@@H](Cc1c[nH]cn1)C(=O)N[C@@H](Cc1c[nH]c2ccccc12)C(=O)N[C@@H](CCCNC(=N)N)C(N)=O [Lp-H, Lau-RHWR-NH2] (Lauroyl-RHWR-NH2)
25

Checklist item: MIC tested on E. coli ATCC 25922, entry CCCCCCCCCC(=O)N[C@@H](CCCNC(=N)N)C(=O)N[C@@H](Cc1ccccc1)C(=O)N[C@@H](Cc1c[nH]c2ccccc12)C(=O)N[C@@H](CCCNC(=N)N)C(N)=O [Lp-F^Dec, Dec-RFWR-NH2] (Decanoyl-RFWR-NH2) , value?
25

====

MIC: recorded values
- Test system: P. aeruginosa ATCC 27853
- Assay type: cell-based, Pseudomonas aeruginosa
- test_settings: ATCC 27853, 24 h
Where a SMILES comes first, the peptide text is derived from it. The star is where a group is joined. Lauroyl = CCCCCCCCCCCC(=O)*
Express it in µg/mL; write the number only.

Recorded results for 3 compounds are shown here.
{"compound": "CCCCCCCCCCCC(=O)N[C@@H](CCCNC(=N)N)C(=O)N[C@@H](CC(C)C)C(=O)N[C@@H](Cc1c[nH]c2ccccc12)C(=O)N[C@@H](CCCNC(=N)N)C(N)=O [Lp-L, Lau-RLWR-NH2] (Lauroyl-RLWR-NH2)", "readout_label": "MIC", "reported_measurement": 25}
{"compound": "CCCCCCCCCCCC(=O)N[C@@H](CCCNC(=N)N)C(=O)N[C@@H](CCCNC(=N)N)C(=O)N[C@@H](Cc1c[nH]c2ccccc12)C(=O)N[C@@H](CCCNC(=N)N)C(N)=O [Lp-R, Lau-RRWR-NH2] (Lauroyl-RRWR-NH2)", "readout_label": "MIC", "reported_measurement": 25}
{"compound": "CCCCCCCCCCCC(=O)N[C@@H](CCCNC(=N)N)C(=O)N[C@@H](CS)C(=O)N[C@@H](Cc1c[nH]c2ccccc12)C(=O)N[C@@H](CCCNC(=N)N)C(N)=O [Lp-C, Lau-RCWR-NH2] (Lauroyl-RCWR-NH2)", "readout_label": "MIC", "reported_measurement": 200}

Now consider a different compound.
Bench note: what MIC did CCCCCCCCCCCC(=O)N[C@@H](CCCNC(=N)N)C(=O)NCC(=O)N[C@@H](Cc1c[nH]c2ccccc12)C(=O)N[C@@H](CCCNC(=N)N)C(N)=O [Lp-G, Lau-RGWR-NH2] (Lauroyl-RGWR-NH2) show?
50

====

- Test system: C. albicans ATCC 90029
- Type: cell-based, Candida albicans
- test_settings: ATCC 90029, 48 h
- Protocol: Fungal strains used were Candida albicans ATCC 90029 and SC5314. Fungi were grown on Sabouraud dextrose (SAB, Difco) agar plates at 30°C for 48h. The initial fungal inoculum was prepared by picking and suspending five colonies in 5 mL of sterile PBS. The antimicrobial activity of USCLs was determined by the Minimum Inhibitory Concentration (MIC) assay, according to the guidelines of CLSI (Clinical & Laboratory Standards Institute) and described in [30, 31]. […]
Where a SMILES comes first, the peptide text is derived from it. The star is where a group is joined. Lauroyl = CCCCCCCCCCCC(=O)*
readout_label: MIC (µg/mL)
Unit µg/mL implied. Number only.

Sample records with MIC:
{"compound": "CCCCCCCCCCCC(=O)N[C@@H](CCCNC(=N)N)C(=O)N[C@@H](CCCNC(=N)N)C(=O)N[C@@H](Cc1ccccc1)C(=O)N[C@@H](Cc1c[nH]c2ccccc12)C(=O)N[C@@H](CCCNC(=N)N)C(=O)N[C@@H](CCCNC(=N)N)C(N)=O [Lp-F^RR, Lau-RRFWRR-NH2] (Lauroyl-RRFWRR-NH2)", "value_units": "µg/mL", "MIC": 1.56}
{"compound": "CCCCCCCCCCCC(=O)N[C@@H](CCCNC(=N)N)C(=O)N[C@@H](CCCNC(=N)N)C(=O)N[C@H](C(=O)N[C@@H](Cc1c[nH]c2ccccc12)C(N)=O)[C@@H](C)CC [Lau-RRIW, Lau-RRIW-NH2] (Lauroyl-RRIW-NH2)", "value_units": "µg/mL", "MIC": 3.125}
{"compound": "CCCCCCCCCCCC(=O)N[C@@H](CCCNC(=N)N)C(=O)N[C@@H](CCCNC(=N)N)C(=O)N[C@@H](Cc1c[nH]c2ccccc12)C(=O)N[C@@H](CCCNC(=N)N)C(N)=O [Lp-R, Lau-RRWR-NH2] (Lauroyl-RRWR-NH2)", "value_units": "µg/mL", "MIC": 1.56}
{"compound": "CCCCCCCCCCCC(=O)N[C@@H](CCCNC(=N)N)C(=O)N[C@@H](CCCNC(=N)N)C(=O)N[C@@H](Cc1ccccc1)C(=O)N[C@@H](Cc1c[nH]c2ccccc12)C(N)=O [Lau-RRFW, Lau-RRFW-NH2] (Lauroyl-RRFW-NH2)", "value_units": "µg/mL", "MIC": 3.125}

Continue with the next compound.
I would be grateful if you could share the reported MIC for CCCCCCCCCCCC(=O)N[C@@H](CCCNC(=N)N)C(=O)N[C@@H](CCSC)C(=O)N[C@@H](Cc1c[nH]c2ccccc12)C(=O)N[C@@H](CCCNC(=N)N)C(N)=O [Lp-M, Lau-RMWR-NH2] (Lauroyl-RMWR-NH2) .
3.125

# credit: paper PMC6383929
